Entry source: PubChem BioAssay

assay: probe aLAP1 signal on lysate-treated microarray – cell lysate, small-molecule microarray, COS7 lysate, primary screen (AID 1124);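 further: lysate comes from COS7 cells expressing LAP1 and is applied at 0.3 µg/mL; score merges spot fluorescence near 667 nm with signal-to-noise over triplicate slides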
measurement conditions: probe aLAP1, fluorescence, higher = more signal
measurement kind: composite z-score
I only need the number, thanks.

Find the recorded composite z-score belonging to CC(C)(C)OC(=O)CC[C@]1(C(=O)NCCN2CCOCC2)COC(c2ccc(OCCCO)cc2)=N1 and report it.
0.737

CCCCN1CC=CC23O[C@@H]4C=CCCOC(=O)C4[C@H]2C(=O)N(CCCCCO)[C@@H]3C1=O (some centres undefined) , same question.
-0.327

Continue with COC(=O)C[C@H]1O[C@@H](CCc2ccccc2)[C@@H](C)[C@@H]1[Si](C)(C)c1ccc(OC)cc1
0.314

Please answer likewise for O=C1C2C=CC(C(O)c3c(F)cccc3Cl)N(Nc3ccccc3F)C2C(=O)N1c1ccccc1 (centres undefined)
0.497
